assay: soluble fraction after stress (log2 fold change); higher = more stays soluble; pooled small domains, quantitative proteomics; details: stress: 75 degC;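 further: 20 min heating vs room temperature control held 20 min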
The sequences listed here are annotated with their soluble fraction (log2).

-- ask Recorded soluble fraction (log2) of HMLPGVPVVAGKTQSAATRILKAAGYAVSVVREEAFDGVTGTVLRTSPEAGSPLAPGSRVTLVVLQVV , please.
-- reply -2.22

-- ask Recorded soluble fraction (log2) of HMSGSLLQTRQRLQALTDLGHYKGDLAAAWGPEAIEALKRAQAALGITVDGKWGPETEDAIQVALQAQT , please.
-- reply -0.00363

-- ask Recorded soluble fraction (log2) of HMTLSVRQRMSQIINKIDVSNFTDFTKLFDINEGRLGVAVTFLAILELLKDTMIDVIQNEEFAPLHIKVSS , please.
-- reply 0.128

-- ask Recorded soluble fraction (log2) of HMDTLRARQEAAYRFLSAIAGDWRNYEEANRALFAGDAARFQDLTESWPADVRDHARHLASAAFSS , please.
-- reply -0.8

----------
assay: soluble fraction after stress (log2 fold change); higher = more stays soluble; pooled small domains, quantitative proteomics; conditions: stress: 75 degC
Measure Name: soluble fraction (log2)
Enter the number alone.

# example entries with known answers
Biopolymer Sequence	soluble fraction (log2)
HMSATPQRMSIINELDSARKNLSAYDLRDSLKDKGHSFNISTIYRVLSFWIDVGVVHKMDSSNTYL	-0.111
HMDDVIEVEGKVVEVLPNTKFIVELANSHKITAHISGKLRMNYIRIMKGDNVTVEMSPYDLTKGRIIWRS	-0.165
HMESGFEAVREVARHGSFANAAKALGVSGPAVSRQVKSLEERLGLVFFHRTTRMVTLTEAGQQLVDTLD	0.0837
HMYEINEIIRERRLKKGLTQAQVAKYLGVSAPAVNKWEKGTTYPDLVLLPALARLLDTDLTTLLSF	-1.46

-- ask Recorded soluble fraction (log2) of HMHDPLATLTPREHEVMSLMAEGRTNAAIAQALVIGTGAVEKNVTSIFQKLGLDDSGTDHRRVLAVLAWLQ , please.
-- reply -2.13

-- ask Recorded soluble fraction (log2) of HMEEGKVKRMAMDMVDAFYDKVSAMVDDNNDLGRSVVDAWDDEEENPPEYMLDDETRAILVNAGKIEPE , please.
-- reply 0.298

-- ask Recorded soluble fraction (log2) of HMAMDVKEVLLPGVGLRYEFDNSDGDRIGVIAKRSGDFEVVRYTAADRDAAQPMFRLTDEEADALAQILGA , please.
-- reply 0.224

-- ask Recorded soluble fraction (log2) of HMKLTNIQYETLKVVVESRAKIDEEEGITIKLEDIKKYIDQAISFTGLVGDDEDYKKLFADMEYRFKIQ , please.
-- reply -2.96

-- ask Recorded soluble fraction (log2) of HMNADTVIGKAGTVIEKIDNVAATGAVKIDGKVWTARSERDNITIDEGTLVKAMAIEGVKLIVEPVT , please.
-- reply 0.139

-- ask Recorded soluble fraction (log2) of HMTDLNDTQIKILELLSADASLSAAKMAGQLGIAGRNVEANIKKLKEKGILIRHGSPKSGYWEIVN , please.
-- reply -0.349

-- ask Recorded soluble fraction (log2) of HMLTKGDRQSIRDSIIYMVGNAPRTLDYIVAESRYSEEDVIEAVRSLLSSHILSIDDSDMISLTRK , please.
-- reply -1.02

-- ask Recorded soluble fraction (log2) of HMRGFTDFEHIEKEYLATIEKLNWPDGVTLPDKLEGEDTGTSFQVGYGDTRASNLWEYSWMK , please.
-- reply -0.163

-- ask Recorded soluble fraction (log2) of HMRGLLSQREHDVLDLVARGFSYGEIARLRSISVSTVQTHIKNLYRKLAVSSRTEAVYEAKQMGI , please.
-- reply -1.63

----------
assay: soluble fraction after stress (log2 fold change); higher = more stays soluble; pooled small domains, quantitative proteomics; conditions: stress: 75 degC
Note to self: values exactly at -0.2 are 1 (yes). So soluble fraction (log2) at or above -0.2 is 1 (yes), below is 0 (no).

Biopolymer Sequence	Answer Label
HMAAPELLTVRERQVAALISDGLSNQQIAHRLHLEVTTVKAHIGSIFNRLDMNNRVQIAIWAHDRQLVFS	1 (yes)
HMDSYADVLSDYRGKYKTNTISGLKGLRDKIREDMLAAADSLDFEKAALLRDEMNDLNKKIELKEKT	1 (yes)
HMDDFTEVLLQYLKDHDGYSSIHDKTDAETIYNTFGVSKKTFKKAVGDLYKKRLIVLEEEGIRLLG	1 (yes)
HMDLHERISSVLLGTGKSNDELAQILGVNKNTISAYKNKHGDLKGIVLEGIVKHFDINPVWLLTGSGTR	0 (no)
HMLERPLFTPEQYGRFRGKEARIRLSNPVEGRKTLTGSIVEATEERIVVFVEEEEREVTVPFQWIKSGNL	0 (no)

-- ask Item HMQPIQPNQAKYLDGLSSKYKGKGNHSQAAQLTALRDALNAGDHAKAREIYDKLDYEPQAEAAH with soluble fraction (log2) of -0.2 or above?
-- reply 1 (yes)

-- ask Item HMENIDVGQDYKVTMNTIQNLMKTGLVTGTQYKELLREMGVHSGMGAITAQQHQIALDFLNKTMDSA with soluble fraction (log2) of -0.2 or above?
-- reply 1 (yes)

----------
assay: soluble fraction after stress (log2 fold change); higher = more stays soluble; pooled small domains, quantitative proteomics; details: stress: 75 degC
The sequences listed here are annotated with their soluble fraction (log2).
Enter the number alone.

# example entries with known answers
Biopolymer Sequence	soluble fraction (log2)
HMKYTEEIFNILSRGGFISANSVSSTVKRYYDALEEDFTEYYDYYKGIGFYLEAGNGYYLFTR	-3.41
HMKMHKIIKERRLALNFTQEQVAKYLGVTTPAVNKWEKGISYPDISLLPALARLLDTDLNTLLSF	-4.38
HMDPLASLTPREREVLSLMAQGLSNLAVAERLVVSAGAVEKHISSIFTKLDLAPSEHEHRRVLAVLRYVAG	-2.86
HMGAQPLIEPLSERELEVLALIAEGLTNAEIGRRLFIATGTVKRHVNTIYGKLDVHGRIEAIARARDLHLI	-1.25
HMTLPGQDFIRASQLKELIAKYDKQYYEEGVSDISDAEYDRLYEEYLEFENKYPELKDMADAPTKRV	0.659
HMLDYQLQVFKDTLEANRKHRGQKIVFIHGKGEGVLRRALIHALNYQYKKFTYQDASFREYGYGATQVTI	-0.312
HMNLGNLAYESKVTKQVLNMIRPLHPEYSSDDITRAVKEILSEEGSRQRRVDEIARGALDVLMGNPR	0.0661
HMSFDTFKKVFSNLVEKSGYSDAEIARRLGVNRSTISRWKSGEQSPPLPKVKEIANFFGVSPMVFVD	-0.41
HMGETAFRYALPLDQGEALKRSHVIRQSISPDDALATRVTVLEDVLDQTLRQPVQAGEVLLEDHFTR	-0.0825
HMTAIWKTITATLTHDIATGKYAPGDRLPTEAQLAARFGVNRHTVRRAISDMNESGLTYSRRGAGVFVAQ	-2.56

-- ask Recorded soluble fraction (log2) of HMELLPFEFARANRVLLRVNESDLVVSPDANHSAVTEILRLNNNIETIKSVDAEAFDKILSSIYSG , please.
-- reply -0.804

-- ask Recorded soluble fraction (log2) of HMLTQEEITRRRGEILTAAMGVILRKGFLETSMREIAEAAGVGKSTLYDYFPSKDEIMIAYVVD , please.
-- reply -0.97

-- ask Recorded soluble fraction (log2) of HMRDYKTALQEWVQRTPGQPIAYRLVDELGPDHARVFVMEVTVGGQSAGQGRGRTKKEAEQLAARAALEKL , please.
-- reply -0.448

-- ask Recorded soluble fraction (log2) of HMVAELAEMAENKNITSAQLALAWILKQSENIIPIPGTKRIKYLNENIEAVNVDLSKEDVENIENLLRKYP , please.
-- reply -0.104

----------
assay: soluble fraction after stress (log2 fold change); higher = more stays soluble; pooled small domains, quantitative proteomics; conditions: stress: 75 degC
Measure Name: soluble fraction (log2)
Enter the number alone.

# example entries with known answers
Biopolymer Sequence	Result
HMPESYFEMLQKLLETYALPQEGTIYFSAADLARMPQKFEDVIEQTAQKKGGHLVVSKEPKDMDGGFVLV	-1.83
HMEEHSLRKQEMLRIIEALEQLTPKEKTVVVLYYFKGVLFKDIAMLLDVTEGRISQLHTAAMGRLKKLMD	-0.14
HMIEKGSDALEKELRKNNLSINEFLTNKNIDIILDELKLKDIDDLYVNIALGKYTPNQIIKIVNK	-0.0502
HMDGQGIRSITPEYYLSDSATKMPDASSSGWKSVPDDYIDKHYYWVRSKILWDDGTYTTTTPVL	-0.17
HMKPLAQQVNDYLAATRTSIATLANEIPGYSRPTISRYLAGKYDGDITTIEKLLAEWLAQRTG	-0.832
HMNDNQNKQMLWELLKDNRAFDNFDNKDYKTIIHLFNETVNTIDHRTPNLDLIKKNKIFIQDIMQKLSNL	-1.46
HMGKSDDSLAAEKFIQHVRKNGELSYEQAYRMVHAYFPDFRNFEGMVSGAVKSGYLILIQKSTGLFLRAKE	-3.68
HMKNLNVIDLSALRTLELKESSDWTLIQKRFKLLVKKYHPDMNAGSKQYEEKLKKITLAYTHLKKLF	-2.67

// moving on: another record for soluble fraction (log2)
-- ask Recorded soluble fraction (log2) of HMSQPLYWQIRRMVIDHDDANDVLQNTFIKAWSNIGSFRGDAKFSTWLYKIAVNESITFINKKKVQN , please.
-- reply -0.44
